Consider the following molecules and their measured inhibition readings.
target: Acyl-protein thioesterase 1 (Homo sapiens) (UniProt O75608); test: inhibition of human lysophospholipase 1 – biochemical, fluorescence polarization, FP-Rh probe ABPP, counter-screen for PME1 inhibitor project, primary screen (AID 2174); details: recombinant LYPLA1, FP-Rh probe fluorescence polarization; at 5.9 µM; hits give high values;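 note: inhibitors block serine hydrolase probe labeling of LYPLA1 so polarization falls; 0% = enzyme with DMSO and 100% = wells lacking LYPLA1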
Sequence (O75608 whole entry, looked up): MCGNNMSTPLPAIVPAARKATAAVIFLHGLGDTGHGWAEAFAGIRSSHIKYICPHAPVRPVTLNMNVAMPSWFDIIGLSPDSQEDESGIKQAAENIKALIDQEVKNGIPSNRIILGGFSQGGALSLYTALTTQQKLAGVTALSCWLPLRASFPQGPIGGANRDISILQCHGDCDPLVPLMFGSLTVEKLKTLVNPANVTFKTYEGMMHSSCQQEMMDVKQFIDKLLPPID
Hit rate of the full screen: of about 320,000 compounds, about 500 (0.16%) were called active. The entries come from a sample that favours actives as a whole.
Just the number in %, nothing appended.

[[record]]
molecule = "Cn1cc(/C=C/C(=O)N2CCCC(C(=O)c3ccc(C(F)(F)F)cc3)C2)cn1 (configuration not stated)"
quantity_name = "inhibition"
measurement = -3.26

[[record]]
molecule = "CCOCCCNC(=O)c1cn(CC(C)C)c(=O)c2c1c1ccccc1n2C"
quantity_name = "inhibition"
measurement = 0.47

[[record]]
molecule = "O=C(CN1C(=O)CCC1=O)Nc1ccc(S(=O)(=O)N2CCOCC2)cc1"
quantity_name = "inhibition"
measurement = -5.25

[[record]]
molecule = "COc1ccc(N2CC(C(=O)NCCN3C(=O)S/C(=C\\c4cccnc4)C3=O)CC2=O)c(OC)c1 (configuration not stated)"
quantity_name = "inhibition"
measurement = 67.3


# return recorded inhibition for entry C=CCNC(=S)NNC(=O)c1cc(Cl)ccc1OC 1.08

# return recorded inhibition for entry COc1ccc(C(C)NC(=O)C2CCCC2)cc1 (configuration not stated) 0.96

# return recorded inhibition for entry CCN1C(=O)/C(=c2\s/c(=C3\Sc4ccccc4N3C)c(=O)n2C)N(C)C1=S -0.75

# return recorded inhibition for entry CCC(Cc1ccccc1)NC(=O)C1CCCCC1 (configuration not stated) -0.48

# return recorded inhibition for entry CCOC(=O)C1(CC2CCCCO2)CCN(Cc2nc(-c3cccs3)oc2C)CC1 (configuration not stated) -3.08

# return recorded inhibition for entry Cc1cc(OCC(=O)N2CCN(c3ncccn3)CC2)ccc1Cl -2.47

# return recorded inhibition for entry Cc1ccc2c(c1)N(S(=O)(=O)c1cc(-c3cc(C)no3)ccc1C)CCO2 -4.6

# return recorded inhibition for entry COc1ccccc1C(=O)NC(CCSC)C(=O)N1CCN(C(C)=O)CC1 (configuration not stated) -1.6

# return recorded inhibition for entry CCc1c(SCCC(=O)O)nc2ccccc2c1C 2.67

# return recorded inhibition for entry CCOc1ncccc1C(=O)OCC(=O)c1c[nH]c2ccccc12 -4.27

---

target: Acyl-protein thioesterase 1 (Homo sapiens) (UniProt O75608); assay: inhibition of human lysophospholipase 1 – biochemical, fluorescence polarization, FP-Rh probe ABPP, counter-screen for PME1 inhibitor project, primary screen (AID 2174); conditions: recombinant LYPLA1, FP-Rh probe fluorescence polarization; at 5.9 µM; hits give high values
Hit rate of the full screen: of about 320,000 compounds, about 500 (0.16%) were called active. This excerpt belongs to a sample that is enriched for actives.
QUANTITY NAME: inhibition (%)
Just the number in %, nothing appended.

Past entries and their recorded results:
[[record]]
compound = "COc1ccc(/C=C/c2noc(-c3ccccc3OC(C)=O)n2)cc1"
measurement = -1.21

[[record]]
compound = "O=C(N/N=C/c1ccsc1)c1cc(O)cc(O)c1"
measurement = 3.13

[[record]]
compound = "COC(=O)c1sc(=S)n(-c2ccc(Cl)cc2)c1C"
measurement = 0.52

[[record]]
compound = "Cc1c(C)c2ccc(OCC(=O)N3CCN(c4cccc(Cl)c4)CC3)cc2oc1=O"
measurement = 6.19

[[record]]
compound = "COCCOC(=O)c1sc(=S)n(CCOC)c1N"
measurement = 19.7


Give inhibition for COc1cccc(NC(=S)NC(=O)c2c(Cl)c(C)nn2C)c1 tested on Acyl-protein thioesterase 1 (Homo sapiens) (UniProt O75608). -3.22

Give inhibition for CCCCn1c(N)c(N(CC(C)C)C(=O)C2CSC3(C)CCC(=O)N23)c(=O)[nH]c1=O (stereo not given) tested on Acyl-protein thioesterase 1 (Homo sapiens) (UniProt O75608). -1.21

Give inhibition for CCOc1ccc(S(=O)(=O)N/N=C(\C)c2ccc(Cl)c(Cl)c2Cl)cc1 tested on Acyl-protein thioesterase 1 (Homo sapiens) (UniProt O75608). 0.76

Give inhibition for CCN(CC)S(=O)(=O)c1ccc(N2CCOCC2)c(NC(=O)c2ccc(=O)n(C)n2)c1 tested on Acyl-protein thioesterase 1 (Homo sapiens) (UniProt O75608). 3.13

---

target: Acyl-protein thioesterase 1 (Homo sapiens) (UniProt O75608); assay: inhibition of human lysophospholipase 1 – biochemical, fluorescence polarization, FP-Rh probe ABPP, counter-screen for PME1 inhibitor project, primary screen (AID 2174); conditions: recombinant LYPLA1, FP-Rh probe fluorescence polarization; at 5.9 µM; hits give high values;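 note: inhibitors block serine hydrolase probe labeling of LYPLA1 so polarization falls; 0% = enzyme with DMSO and 100% = wells lacking LYPLA1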
The whole screen tested about 320,000 compounds, of which about 500 (0.16%) were called active. Shown is part of a subset that was picked to be rich in actives.
QUANTITY NAME: inhibition (%)
Just the number in %, nothing appended.

Past entries and their recorded results:
[[record]]
chemical_structure = "Nc1nc(SCC(=O)NNc2c(Cl)cc(Cl)cc2Cl)n[nH]1"
measurement = 2.34

[[record]]
chemical_structure = "Cc1cc(C)c(C#N)c(SCC(=O)NN2CC(=O)N(c3ccccc3F)CC2=O)n1"
measurement = -0.67

[[record]]
chemical_structure = "COc1ccccc1-n1c(=S)[nH]c2c(sc(=S)n2-c2ccc(C)cc2C)c1=O"
measurement = 2.01

[[record]]
chemical_structure = "COc1ccccc1N1CCN(C(=O)c2ccc(Cl)c(S(=O)(=O)N3CCCC3)c2)CC1"
measurement = 1.54

[[record]]
chemical_structure = "CC1(C)CC(=O)C/C(=N\\NC(=O)c2cccs2)C1"
measurement = -2.89


Give inhibition for CCOc1ccccc1N1CCN(C(=O)c2ccc3[nH]c(C)c(C)c3c2)CC1 tested on Acyl-protein thioesterase 1 (Homo sapiens) (UniProt O75608). 14.2

Give inhibition for CCn1cc(CN2CCC(C(=O)Nc3cccc(-c4cccc(Cl)c4)c3)CC2)c(C)n1 tested on Acyl-protein thioesterase 1 (Homo sapiens) (UniProt O75608). -1.53

---

Consider the following compounds and their measured inhibition readings.
molecular target: Acyl-protein thioesterase 1 (Homo sapiens); experiment: inhibition of human lysophospholipase 1 – biochemical, fluorescence polarization, FP-Rh probe ABPP, counter-screen for PME1 inhibitor project, primary screen (AID 2174); settings: recombinant LYPLA1, FP-Rh probe fluorescence polarization; at 5.9 µM; hits give high values;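 note: inhibitors block serine hydrolase probe labeling of LYPLA1 so polarization falls; 0% = enzyme with DMSO and 100% = wells lacking LYPLA1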
The campaign covered roughly 320,000 compounds. About 500 (0.16%) were called active. This excerpt belongs to a sample that is enriched for actives.
Just the number in %, nothing appended.

Past entries and their recorded results:
[[record]]
compound = "CC(C)c1ccc(S(=O)(=O)N2CCN(C(=O)CN3C(=O)NC(C)(c4ccccc4)C3=O)CC2)cc1 (stereo not given)"
assayed_target = "Acyl-protein thioesterase 1 (Homo sapiens)"
measurement = 0.26

[[record]]
compound = "Cc1cc2ccccn2c1C(=O)c1cccc(S(=O)(=O)N2CCOCC2)c1"
assayed_target = "Acyl-protein thioesterase 1 (Homo sapiens)"
measurement = -1.9

[[record]]
compound = "CCCCn1c(N)c(N(CCC(C)C)C(=O)c2ccc([N+](=O)[O-])o2)c(=O)[nH]c1=O"
assayed_target = "Acyl-protein thioesterase 1 (Homo sapiens)"
measurement = -7.18

[[record]]
compound = "CCn1cc(-c2cc(C(=O)O)on2)c(C)n1"
assayed_target = "Acyl-protein thioesterase 1 (Homo sapiens)"
measurement = -0.98


# return recorded inhibition for entry CCOC(=O)c1cc2cc(-c3c(C(=O)OCC)oc4cc(O)cc(O)c4c3=O)ccc2o1 9.58

# return recorded inhibition for entry COc1ccccc1C(CNC(=O)c1cccc(S(=O)(=O)Nc2ccc(F)cc2)c1)N(C)C (stereo not given) -0.85

# return recorded inhibition for entry CSc1c(SCc2ccccc2)cnn(Cc2ccccc2)c1=O 15

# return recorded inhibition for entry CC(C)(C)c1ccc(CCC2OCC(CN3CCOCC3)O2)cc1 (stereo not given) -1.79

# return recorded inhibition for entry CSc1nc(-c2ccccc2)nc(C(Cl)Cl)n1 3.5

# return recorded inhibition for entry CC(=O)Nc1ccc(C(=O)N(C2=NC(C)CS2)c2ccc(Cl)cc2)cc1 (stereo not given) -16.3

---

molecular target: Acyl-protein thioesterase 1 (Homo sapiens) (UniProt O75608); assay: inhibition of human lysophospholipase 1 – biochemical, fluorescence polarization, FP-Rh probe ABPP, counter-screen for PME1 inhibitor project, primary screen (AID 2174); conditions: recombinant LYPLA1, FP-Rh probe fluorescence polarization; at 5.9 µM;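 note: inhibitors block serine hydrolase probe labeling of LYPLA1 so polarization falls; 0% = enzyme with DMSO and 100% = wells lacking LYPLA1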
Hit rate of the full screen: of about 320,000 compounds, about 500 (0.16%) were called active.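 How the source made its calls: active means inhibition above the mean of all tested compounds plus 3 SD, set per campaign (cut at about 14% in these data); inactive means the rest.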 Only a selection was taken, and actives are over-represented in it overall.
The categories you may choose from are active, inactive

Solved cases below.
[[record]]
compound = "O=C(CN1CCN(c2cccc(Cl)c2)CC1)Nc1ccc(S(=O)(=O)N2CCOCC2)cc1"
class_assignment = "active"

[[record]]
compound = "Cc1cc(-c2ccccc2)nc(N2CCC(C(=O)NC34CC5CC(CC(C5)C3)C4)CC2)n1"
class_assignment = "inactive"

[[record]]
compound = "O=C(Cc1ccccc1F)NC1CCSc2ccccc21 (stereo not drawn)"
class_assignment = "inactive"

[[record]]
compound = "COc1ccccc1C(=O)NC(CCSC)C(=O)NNC(=O)c1ccccc1C (stereo not drawn)"
class_assignment = "inactive"

[[record]]
compound = "O=c1[nH][nH]c(C(F)(F)F)c1C=NCc1ccccc1Cl"
class_assignment = "inactive"

[[record]]
compound = "O=C(CSc1ncnc2c1nnn2Cc1ccc(F)cc1)NC1CCCC1"
class_assignment = "inactive"


Hey, what did the test say about CCOC(=O)NN1C(=O)c2ccccc2NC1c1ccccc1O (stereo not drawn) ? inactive

Hey, what did the test say about C=CCNC(=O)c1cc(-c2ccccc2O)on1 ? inactive

Hey, what did the test say about COc1cccc(C(C(=O)NC2CCCC2)N(C(=O)c2ccco2)c2cccc(C(C)=O)c2)c1OC (stereo not drawn) ? inactive

Hey, what did the test say about CCN(CC(=O)Nc1c(F)cccc1F)C(=O)c1ccc(S(=O)(=O)N2CCCCC2)cc1 ? inactive

Hey, what did the test say about CC(C)CCNC(=O)CCNS(=O)(=O)c1ccc(Cl)cc1 ? inactive
